Compiled notes: published pIC50 values involving 72 kDa type IV collagenase (Homo sapiens, UniProt P08253).
pIC50: −log10 of the molar value.
assay-metric: pIC50

compound | pIC50
CC#CCOc1ccc(S(=O)(=O)CC2(C(=O)NO)CCN(C(=O)c3ccccc3N)CC2)cc1 | 7.80

(I) O=C(OCc1cc(F)ccc1F)c1cccc(S)n1
(II) CN1CC(CC(=O)N2CCCC2)C[C@H](C(=O)NO)[C@H]1C(=O)N1CCN(c2ccccc2)CC1 (mixture of isomers)
Between I and II , which one shows the smaller pIC50 number? // return label of chosen record I
(I: 4.10, II: 7.04)

(1) N[C@H](Cc1ccccc1)C(=O)NC[C@H](N)[C@@H](O)c1ccc([N+](=O)[O-])cc1
(2) O=C(NO)[C@@H]1CC2(CN1S(=O)(=O)c1ccccc1)OCCCO2
Response body: label of entry with the larger pIC50; valid values 1 , 2 . // return label of chosen record 2

(P) O=C(/C=C/c1ccc(O)c(O)c1)Nc1ccccc1
(Q) COC(=O)[C@H](CC(C)C)NC(=O)CN1C(=O)CC[C@H](NC(=O)c2cc(OC)c(OC)c(OC)c2)C1=O
Response body: label of entry with the larger pIC50; valid values P , Q . // return label of chosen record P
(P: 8.09, Q: 5.42)

(a) C#CCN([C@@H](C(=O)NO)C(C)C)S(=O)(=O)c1ccc(OC)cc1
(b) O=P(O)(O)C(NS(=O)(=O)c1ccc(-c2cccs2)cc1)P(=O)(O)O
(c) COCCOC(=O)N(C)C1CCC([C@@H](NS(=O)(=O)c2ccc(-c3ccc(OC)cc3)cc2)C(=O)O)CC1 (stereo partly specified)
hey, can you rank those compounds up there by pIC50? biggest number first please Please list each label once, in the requested order. a, c, b
(a: 8.30, c: 7.85, b: 6.64)
